Tested on: MS2 coat protein
Experiment: apparent KD of MS2 coat protein; designed switch direction (-1 OFF switch, 1 ON switch): -1; higher = weaker reporter binding
Conditions: input ligand: FMN 200 uM
Would you mind telling me the reported apparent KD of MS2 coat protein of each entry?
Your answer should be a plain number; it is taken to be in nM.

Query block: Which measured apparent KD of MS2 coat protein value corresponds to UCCAUGUCAGGAUAUCUAAAGGUCCGAAAUAACGGUACUGCAGAGAAGGGACAUGAGGAUCACCCAUGUCCUCC [Exclusion 4 (Mod2 of Nando's EX4 C.22)] (Eterna round: R97, puzzle: Exclusion 4) ?
Result block: 20.3

Query block: Thanks! And CGUAGCAAUGUGAGGAUAUCUAGAGCCUCGGCUCUAGAGAAGGCACAUGAGGAUCACCCAUGUGAUUAGCUACG [BmEx4/9-B2] (Eterna round: R97, puzzle: Brourd's mod of Exclusion 4) ?
Result block: 597

Query block: Follow-up entry: GUAAACGAUCAGGAUAUAUCAAAUCAUAGCUUGAUAGAAGGGAUCACAUGAGGAUCACCCAUGUGAUCUUCUUU [jl-ex6-4.15 ViennaUCT mod] (Eterna round: R97, puzzle: Exclusion 6)
Result block: 13.2

Query block: Would you mind doing CAGUUCCAGGGAGGAUAUCCGAAAGGAAGUGUAGGAGAAGGCCCAAACUGAAAACACAUGAGGAUCACCCAUGUAGGUGUUCUC [PowerStrip EXNG 1.20] (Eterna round: R96, puzzle: Exclusion NG 1) as well?
Result block: 1320

Query block: Try the sequence GAGUUAACAUGAGGAAUAUACAUGAGGAUCACCCAUGUUAACAAAACUUUUGCUCGUCUUAUAACAACAAUUAACUC [Alarm 2 - Jieux - Sensor, turn-off variant 1] (Eterna round: R97, puzzle: Sensor, turn-off variant 1)
Result block: 347

Query block: Please answer likewise for GGAGGGAAAGUGAGGAUAUCCGGAGGGAAACCUCCGGAGAAGGCACAUGAGGAUCACCCAUGUAAGGAAGGAGG [AK-MS2ROC-r4-Bmoexclusion4-1.1] (Eterna round: R97, puzzle: Brourd's mod of Exclusion 4)
Result block: 203

Query block: Next: CGAUGACCGGUGAGGAUAUCGUGUUCGAAAGAACGUGAGAAGGCACAUGAGGAUCACCCAUGUGAUCCUCAUCG [Omei Ex4B A33] (Eterna round: R97, puzzle: Brourd's mod of Exclusion 4)
Result block: 25.9

Query block: Another sequence to check: CUCGUGUGAGGAUAUUCACACCCGUUGCAGCGACGGACAAAGAAGAAGGCACAUGAGGAUCACCCAUGUAAAGA [Onan] (Eterna round: R97, puzzle: Exclusion 4)
Result block: 97.8

Query block: Then this sequence: AGUCAGGCGGUAGGAUAUCCAUAUCGAGUGACCCUUUCAUAACAUGAGGAUCACCCAUGUCGGUGGGAGAAGGGCCGUAAGGCA [Mat - Exclusion NG 2 - Mod of JL - D69] (Eterna round: R96, puzzle: Exclusion NG 2)
Result block: 53.6
